test: recombinant UMI read abundance after kanamycin selection (control-corrected) (log10(CPM+1)); higher = more efficient recombination; extreme values may be limits of the assay; sequences stand for … in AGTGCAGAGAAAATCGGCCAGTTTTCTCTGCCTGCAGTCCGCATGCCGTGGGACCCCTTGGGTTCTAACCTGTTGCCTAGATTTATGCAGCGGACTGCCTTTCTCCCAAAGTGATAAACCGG…AGGTTGGTTTCACT; site = the 11-nt donor
quantity.measured: recombinant UMI read abundance (log10)
// return just the number, without any unit appended

Reference set (3 entries):
                              sequence_data  test_value
0  GCTTGGCCATGGACCGGTTTTCCCGGTAATCCGTATTTGAT (site GCTTGTCCTAT)     0.00708
1  GGGCTCACATGGACCGGTTTTCCCGGTAATCCGTATTTGAT (site GGGCTCACTAT)        1.73
2  CGGAATGCATGGACCGGTTTTCCCGGTAATCCGTATTTGGT (site CGGAATCCTAA)           0

In: Read off the recorded recombinant UMI read abundance (log10) for GCCATATCATGGACCGGTTTTCCCGGTAATCCGTATTTGTC (site TCCATATCTGA)
Out: 1.87

In: Read off the recorded recombinant UMI read abundance (log10) for TTGGGTGCATGGACCGGTTTTCCCGGTAATCCGTATTTGAT (site TTGGGTGCTAT)
Out: 1.6

In: Read off the recorded recombinant UMI read abundance (log10) for ATCGAGACATGGACCGGTTTTCCCGGTAATCCGTATTTGGT (site ATTGAGACTAC)
Out: 0.017

In: Read off the recorded recombinant UMI read abundance (log10) for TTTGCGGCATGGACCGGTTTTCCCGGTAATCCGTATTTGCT (site ATTGCGGCTAG)
Out: 0.00696

In: Read off the recorded recombinant UMI read abundance (log10) for CGTGGGACATGGACCGGTTTTCCCGGTAATCCGTATTTGTT (site CGTGGCACTAA)
Out: 0.0102

In: Read off the recorded recombinant UMI read abundance (log10) for CACGGCGCATGGACCGGTTTTCCCGGTAATCCGTATTTGTT (site CACGGCGCTAA)
Out: 1.74

In: Read off the recorded recombinant UMI read abundance (log10) for AGCCCTTCATGGACCGGTTTTCCCGGTAATCCGTATTTGAC (site AGCCGTTCTGT)
Out: 0

----------
experiment: recombinant barcode read abundance after kanamycin selection (control-corrected) (log10(CPM+1)); higher = more efficient recombination; sequences stand for … in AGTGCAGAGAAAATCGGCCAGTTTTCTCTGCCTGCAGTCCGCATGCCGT…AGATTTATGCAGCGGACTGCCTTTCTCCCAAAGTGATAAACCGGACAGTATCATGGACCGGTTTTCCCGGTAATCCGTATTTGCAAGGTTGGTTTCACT; site = the 11-nt target
Use 1 (yes) when the recorded recombinant barcode read abundance (log10) is no lower than 0.8; use 0 (no) when it is lower.

>>> print(df.to_string())
                              sequence_data  class_assignment
0  TATGGTACTTGGGTTCTAACCTGTTGCGT (site TATGGTACTAC)           1 (yes)

In the following, a different sequence is considered.
In: In plain terms: is recorded recombinant barcode read abundance (log10) at least 0.8 for TCCTGTGCTTGGGTTCTAACCTGTTGCCT (site TTCTATGCTAG) ?
Out: 0 (no)
